Assign Potency to each entry below.
- Tested on: HEK293
- TEST_DESCRIPTION: Cytotoxic Profiling of Annotated Libraries Using Quantitative High-Throughput Screening (AID 1296008); note: potency is the fitted concentration of half-maximal effect; nearly all actives have a fitted effect of over 60% in size
- TEST_CONDITIONS: Five cell lines viability, CellTiter-Glo ATP luminescence, 48-72 h
Records with an inconclusive call do not appear. Activity calls are given as the source filed them. Calls come from the whole dose curve; as a rule, active = well fitted inhibition curve with a large enough effect; inconclusive = small, poorly fitted or top-dose-only effect; inactive = flat fitted curve, though single readings scatter.

Query: What Potency appears in the records for this compound with HEK293? `O=C1[C@H](Cc2ccc(O)cc2)N2C(=O)CCN(C(=O)NCc3ccccc3)[C@H]2CN1Cc1cccc2ccccc12`
Reply: 2.09 µM (active)

Query: What reported Potency corresponds to `CCCc1nn(C)c2c(=O)[nH]c(-c3cc(S(=O)(=O)N4CCN(C)CC4)ccc3OCC)nc12` on HEK293?
Reply: 18.7 µM (active)

Query: Please state recorded Potency (tested on HEK293) of `COc1ccccc1[C@H](c1cccc2ccccc12)[C@@](C)(C#N)C(=O)N1CCC(c2cccc(C(F)(F)F)c2)CC1`
Reply: 13.2 µM (active)

Query: Lookup: Potency / HEK293 / COc1ccc(COc2cc3oc(=O)c4cc(C(C)O)ccc4c3cc2OC)cc1 (centres undefined)
Reply: 14.8 µM (active)

###

Can you tell me activity for the items I'm about to list?
- TARGET_SYSTEM: Catechol O-methyltransferase (Homo sapiens) (UniProt P21964)
- Sequence (P21964 whole entry, looked up): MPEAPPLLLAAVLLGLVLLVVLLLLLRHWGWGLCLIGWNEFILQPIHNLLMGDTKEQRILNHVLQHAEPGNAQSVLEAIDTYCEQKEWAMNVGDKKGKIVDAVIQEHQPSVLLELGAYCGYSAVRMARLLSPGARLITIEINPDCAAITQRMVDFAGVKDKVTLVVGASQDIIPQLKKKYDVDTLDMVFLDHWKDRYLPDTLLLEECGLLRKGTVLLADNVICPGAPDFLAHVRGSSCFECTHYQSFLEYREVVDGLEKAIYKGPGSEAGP
- TEST_DESCRIPTION: Confirmatory Screen for Target Class Profiling of Small Molecule Inhibitors of Methyltransferases (AID 1745852)
- TEST_CONDITIONS: MTase-Glo luminescence, SAH detection, recombinant enzyme; measured here: COMT max response; stronger effect = lower value
State the answer as a number, implicitly in %.

Query: Item: `Nc1nccc(-c2ccc3noc(-c4ccc(Cl)cc4)c3c2)n1` Test system: Catechol O-methyltransferase (Homo sapiens) (UniProt P21964) Read-out: activity Value: ?
Reply: -4.29

Query: Observed activity on Catechol O-methyltransferase (Homo sapiens) (UniProt P21964) for `CNCc1ccc(-c2[nH]c3cc(F)cc4c3c2CCNC4=O)cc1` , please.
Reply: -6.4

Query: # get_value(readout= activity, system= Catechol O-methyltransferase (Homo sapiens) (UniProt P21964)) for `COc1cc(Nc2ncc3c(n2)-c2ccc(Cl)cc2C(c2c(F)cccc2OC)=NC3)ccc1C(=O)O`
Reply: 0.763

Query: Provide the documented activity with Catechol O-methyltransferase (Homo sapiens) (UniProt P21964) as the system for `NC[C@H](O)c1ccc(O)c(O)c1`
Reply: 45.4

Query: Form field: activity recorded for `CCc1cncnc1N1CCN(Cc2nc3ccc(C(F)(F)F)cc3[nH]2)CC1` with Catechol O-methyltransferase (Homo sapiens) (UniProt P21964) (enter value)
Reply: 1.23

Query: Find activity (Catechol O-methyltransferase (Homo sapiens) (UniProt P21964)) for the entry Cc1ccccc1C(OCCN(C)C)c1ccccc1 (stereo not given)
Reply: -2.48

Query: For the record `CC(C)(Sc1ccc(CCN(CCCCC2CCCCC2)C(=O)NC2CCCCC2)cc1)C(=O)O` , what value of activity is listed for Catechol O-methyltransferase (Homo sapiens) (UniProt P21964)?
Reply: -3.21

Query: activity of `Cc1[nH]c(=O)c(C#N)cc1-c1ccc2nccn2c1` on Catechol O-methyltransferase (Homo sapiens) (UniProt P21964)?
Reply: 4.51

Query: Value wanted: activity (Catechol O-methyltransferase (Homo sapiens) (UniProt P21964)) of entry `OC[C@H](Cc1ccccc1)Nc1nc(Oc2ccc3c(c2)CCC3)nc2c1ncn2Cc1ccc(-c2ccccc2)cc1`
Reply: -10.9

Query: Any idea what activity came out for `CCCS(=O)(=O)Nc1ccc(F)c(C(=O)c2c[nH]c3ncc(-c4ccc(Cl)cc4)cc23)c1F` on Catechol O-methyltransferase (Homo sapiens) (UniProt P21964)?
Reply: -8.94

Each recorded value in this set is attributed to PubChem BioAssay (NCATS).
